Target or system: 5-HT2C (Homo sapiens)
Sequence (P28335 33-458): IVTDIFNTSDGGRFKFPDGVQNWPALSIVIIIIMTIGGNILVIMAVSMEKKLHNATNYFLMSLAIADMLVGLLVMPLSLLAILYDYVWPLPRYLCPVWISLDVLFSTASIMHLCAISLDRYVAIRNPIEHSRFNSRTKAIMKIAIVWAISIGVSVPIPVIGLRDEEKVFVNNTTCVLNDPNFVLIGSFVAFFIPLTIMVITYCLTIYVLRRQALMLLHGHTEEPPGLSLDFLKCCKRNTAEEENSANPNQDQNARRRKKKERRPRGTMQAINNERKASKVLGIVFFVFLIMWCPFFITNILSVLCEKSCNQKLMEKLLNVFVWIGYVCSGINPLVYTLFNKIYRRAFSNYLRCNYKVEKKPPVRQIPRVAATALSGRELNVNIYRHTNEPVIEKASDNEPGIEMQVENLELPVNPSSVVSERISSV
Assay readout: pKi
On this scale, pKi is minus log10 of a concentration expressed in M (mol/L).

-- ask I am curious: what pKi value has been reported for COc1cc2c(cc1OC)C(=O)N(CCCCN1CCN(c3ccccc3OC)CC1)C2 ?
-- reply 5.46

Hey, just so you know, these numbers are from patent US10381110B2.
